target: Serine/threonine-protein kinase PAK 1 (Homo sapiens, UniProt Q13153)
Sequence (Q13153 whole entry): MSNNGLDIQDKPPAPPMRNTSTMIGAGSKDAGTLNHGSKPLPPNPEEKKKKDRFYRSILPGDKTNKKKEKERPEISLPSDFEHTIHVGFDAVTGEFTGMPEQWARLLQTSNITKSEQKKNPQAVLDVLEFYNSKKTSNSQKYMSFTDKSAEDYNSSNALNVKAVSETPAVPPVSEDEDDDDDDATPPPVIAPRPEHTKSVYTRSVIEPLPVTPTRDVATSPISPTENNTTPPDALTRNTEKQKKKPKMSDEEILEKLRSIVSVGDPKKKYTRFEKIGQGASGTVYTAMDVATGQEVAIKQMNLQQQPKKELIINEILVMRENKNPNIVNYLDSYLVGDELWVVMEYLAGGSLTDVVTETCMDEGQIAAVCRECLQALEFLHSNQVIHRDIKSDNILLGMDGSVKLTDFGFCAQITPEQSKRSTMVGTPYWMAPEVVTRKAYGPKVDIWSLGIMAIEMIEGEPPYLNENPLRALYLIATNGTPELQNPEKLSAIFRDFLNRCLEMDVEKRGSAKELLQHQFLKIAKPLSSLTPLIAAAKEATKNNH
attribute_measured: IC50 (µM)
Answers are plain numbers, in µM.

Worked examples follow.
| smiles | IC50 / µM |
| --- | --- |
| O=C(c1ccc(F)cc1)N1CCC(Nc2ncnc3[nH]ncc23)CC1 | 7.82 |
| O=C(c1ccccc1Cl)N1CCC(Nc2ncnc3[nH]ncc23)CC1 | 6.84 |
| O=C(Nc1ccc(Br)cc1)NC1CCN(c2ncnc3[nH]ncc23)CC1 | 4.03 |
| O=C(c1ccc(Br)cc1)N1CCC(Nc2ncnc3[nH]ncc23)CC1 | 29.2 |
| Cc1ccccc1C(=O)NC1CCN(c2ncnc3[nH]ncc23)CC1 | 6.26 |

Could you now look at the following compound, please?
In plain terms, O=C(Nc1ccc(C(F)(F)F)cc1)N1CCC(Nc2ncnc3[nH]ncc23)CC1 has a documented IC50 of 15.8
